- PROTOCOL_TEXT: Pharmacokinetic experiment in male CD-1 mice (IV and PO)
- Type: in vivo
- TEST_SETTINGS: mouse, plasma, PO 3 mg/kg
MEASURED_PARAMETER: AUC (ng·h/mL)
Answers are plain numbers, in ng·h/mL.

Asked: # return recorded AUC for entry C=CC(=O)N1CCN(c2c(C#N)c(=O)n(-c3ccccc3C(C)C)c3cc(-c4c(C)ccc5[nH]ncc45)c(Cl)cc23)[C@@H](C)C1 (single isomer, unassigned)
Given back: 479

---

- PROTOCOL_TEXT: Pharmacokinetic experiment in male CD-1 mice (IV and PO)
- Assay type: in vivo
- TEST_SETTINGS: mouse, plasma, IV 1 mg/kg
MEASURED_PARAMETER: half-life (min)
One number for each entry, in min.

Asked: Answer with reported half-life of C=CC(=O)N1CCN(c2c(C#N)c(=O)n(-c3ccccc3C(C)C)c3cc(-c4c(C)ccc5[nH]ncc45)c(Cl)cc23)[C@@H](C)C1 (single isomer, unassigned) [Compound I-2-2]
Given back: 43.1
